Target: DCN1 (DCUND1) protein PONY domain (Homo sapiens (Human), UniProt Q96GG9)
Sequence (Q96GG9 60-248): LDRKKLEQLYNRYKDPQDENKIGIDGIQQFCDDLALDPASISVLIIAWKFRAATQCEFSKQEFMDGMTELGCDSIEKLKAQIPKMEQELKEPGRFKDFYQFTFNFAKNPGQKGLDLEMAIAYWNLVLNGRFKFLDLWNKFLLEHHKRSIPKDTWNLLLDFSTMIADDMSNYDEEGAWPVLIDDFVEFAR
Experiment: TR-FRET assay (binding to DCN-1, displacement of FAM-labeled probe)
Details: 24 hr after treatment with compound; read-out: TR FRET IC50 24 hr
pIC50: −log10 of the molar value.
Listed here are molecules together with their documented pIC50.
MEASUREMENT LABEL: pIC50

1) CCN1C(=O)[C@H](NC(=O)c2cccc(C(F)(F)F)c2)[C@@H](c2cccc(CNC(=O)C3=CCN(C)C3)c2)c2cnn(-c3ccccc3)c21 = 5.52 to 6.00
2) CCN1C(=O)[C@@H](NC(=O)c2cccc(C(F)(F)F)c2)[C@H](c2cccc(CNC/C=C/C(=O)N3CCCC3)c2)c2cnn(-c3ccccc3)c21 = 5.52 to 6.00
3) CCN1C(=O)[C@H](NC(=O)c2cccc(C(F)(F)F)c2)[C@@H](c2cccc(NC(C)=O)c2)c2c(C)nn(-c3ccccc3)c21 (racemic) = 5.52 to 6.00

* * *

Consider the following molecules and their measured IC50 readings.
Molecular target: DCN1 (DCUND1) protein PONY domain (Homo sapiens (Human), UniProt Q96GG9)
Assay: TR-FRET assay (binding to DCN-1, displacement of FAM-labeled probe)
Settings: 24 hr after treatment with compound; read-out: TR FRET IC50 24 hr
MEASUREMENT LABEL: IC50

1. C=C(CN1CCC1)C(=O)NCc1cccc([C@H]2c3c(C)nn(-c4ccccc4)c3N(CC)C(=O)[C@@H]2NC(=O)c2cccc(C(F)(F)F)c2)c1 = 0.2 to 1 µM
2. C=C(CN1CCOCC1)C(=O)NCc1cccc([C@@H]2c3cnn(-c4ccccc4)c3N(CC)C(=O)[C@H]2NC(=O)c2ccnn2C)c1 = 1 to 3 µM
3. C=C(CN1CC2CC1CO2)C(=O)NCc1cccc([C@@H]2c3c(C)nn(-c4ccccc4)c3N(CC)C(=O)[C@H]2NC(=O)c2cccc(C(F)(F)F)c2)c1 (stereo partly drawn) = ≤ 0.2 µM
4. CCN1C(=O)[C@H](NC(=O)c2cccc(C(F)(F)F)c2)[C@@H](c2cccc(NC(=O)/C(C#N)=C/C3CC3)c2)c2c(C)nn(-c3ccccc3)c21 (racemic) = 0.2 to 1 µM
5. CC#CC(=O)Nc1cccc([C@H]2c3c(C)nn(-c4ccccc4)c3N(CC)C(=O)[C@H]2NC(=O)c2cccc(C(F)(F)F)c2)c1 (racemic) = > 3 µM
6. CCN1C(=O)[C@@H](NC(=O)c2nccc(C(F)(F)F)n2)[C@H](c2ccccc2/C=C/C#N)c2cnn(-c3ccccc3)c21 (racemic) = 1 to 3 µM

* * *

Target: DCN1 (DCUND1) protein PONY domain (Homo sapiens (Human))
Experiment: TR-FRET assay (binding to DCN-1, displacement of FAM-labeled probe)
Details: 24 hr after treatment with compound; read-out: TR FRET IC50 24 hr
pIC50: −log10 of the molar value.
Entries annotated with measured pIC50
MEASUREMENT LABEL: pIC50

1) C=C(CN1CCC12COC2)C(=O)NCc1cccc([C@@H]2c3cnn(-c4ccccc4)c3N(CC)C(=O)[C@H]2NC(=O)c2nccc(C(F)(F)F)n2)c1 = ≥ 6.70
2) CCN1C(=O)[C@H](NC(=O)c2cccc(C(F)(F)F)c2)[C@@H](c2cccc(NC(=O)/C=C/C(=O)OC)c2)c2c(C)nn(-c3ccccc3)c21 (racemic) = ≥ 6.70
3) C=C(CN1CCC12COC2)C(=O)N(C)Cc1cccc([C@@H]2c3cnn(-c4ccccc4)c3N(CC)C(=O)[C@H]2NC(=O)c2ccn(C(F)(F)F)n2)c1 = 6.00 to 6.70
4) C=C(CN1CCC(F)(F)C1)C(=O)NCc1cccc([C@H]2c3cnn(-c4ccccc4)c3N(CC)C(=O)[C@@H]2NC(=O)c2cccc(C(F)(F)F)c2)c1 = 5.52 to 6.00
5) CCN1C(=O)[C@@H](NC(=O)c2nccc(C(F)(F)F)n2)[C@H](c2cccc(NC(=O)C3=CCN(C)C3)c2)c2c(C)nn(-c3ccccc3)c21 [Compound I-37] = ≥ 6.70
6) C=C(CN1CCN(C2COC2)CC1)C(=O)N[C@@H](C)c1cccc([C@@H]2c3cnn(-c4ccccc4)c3N(CC)C(=O)[C@H]2NC(=O)c2nccc(C(F)(F)F)n2)c1 (mixture of isomers) = 5.52 to 6.00
7) C=C(CN1CCOCC1)C(=O)NCc1cccc([C@H]2c3c(C)nn(-c4ccccc4)c3N(CC)C(=O)[C@@H]2NC(=O)c2cccc(C(F)(F)F)c2)c1 = ≥ 6.70
8) C=C(CC(=O)NCc1cccc([C@@H]2c3cnn(-c4ccccc4)c3N(CC)C(=O)[C@H]2NC(=O)c2cccc(C(F)(F)F)c2)c1)C(=O)OC = 5.52 to 6.00
9) CCN1C(=O)[C@H](NC(=O)c2cccc(C(F)(F)F)c2)[C@@H](c2cccc(N3CC=CC3=O)c2)c2c(C)nn(-c3ccccc3)c21 (racemic) = 5.52 to 6.00
10) CCN1C(=O)[C@H](NC(=O)c2cccc(C(F)(F)F)c2)[C@@H](c2cccc(NC(=O)C#CCN3CCOCC3)c2)c2c(C)nn(-c3ccccc3)c21 (racemic) [Compound I-35] = 5.52 to 6.00
11) CCN1C(=O)[C@@H](NC(=O)c2cccc(C(F)(F)F)c2)[C@@H](c2cccc(NC(=O)/C=C/C(F)(F)F)c2)c2c(C)nn(-c3ccccc3)c21 (racemic) = < 5.52
12) CCN1C(=O)[C@@H](NC(=O)c2cccc(C(F)(F)F)c2)[C@@H](c2cc(NC(=O)/C=C/CN(C)C)ccc2F)c2cnn(-c3ccccc3)c21 (racemic) = 5.52 to 6.00
13) C=C(CC(=O)OC)C(=O)NCc1cccc([C@H]2c3cnn(-c4ccccc4)c3N(CC)C(=O)[C@@H]2NC(=O)c2cccc(C(F)(F)F)c2)c1 = 5.52 to 6.00
14) C=C(CN1CCC12COC2)C(=O)N(C)Cc1cccc([C@@H]2c3cnn(-c4ccccc4)c3N(CC)C(=O)[C@H]2NC(=O)c2ccn(C3CC3)n2)c1 = ≥ 6.70
15) C/C=C(\CN(C)C1COC1)C(=O)NCc1cccc([C@@H]2c3cnn(-c4ccccc4)c3N(CC)C(=O)[C@H]2NC(=O)c2nccc(C(F)(F)F)n2)c1 = ≥ 6.70
16) C/C=C(\CN1CCOCC1)C(=O)Nc1cccc([C@@H]2c3c(C)nn(-c4ccccc4)c3N(CC)C(=O)[C@H]2NC(=O)c2cccc(C(F)(F)F)c2)c1 (racemic) = ≥ 6.70
17) C=C(CN1CCN(C2COC2)CC1)C(=O)NCc1cccc([C@@H]2c3cnn(-c4ccccc4)c3N(CC)C(=O)[C@H]2NC(=O)c2nccc(C(F)(F)F)n2)n1 [Compound I-354] = 5.52 to 6.00
18) C=C(CN1CCOCC1)C(=O)NCc1cccc([C@H]2c3cnn(-c4ccccc4)c3N(CC)C(=O)[C@@H]2NC(=O)c2nccc(C(F)(F)F)n2)c1 = 5.52 to 6.00
19) CCN1C(=O)[C@@H](NC(=O)c2cccc(C(F)(F)F)c2)[C@H](c2cccc(CNC(=O)/C=C(\C)C(=O)OC)c2)c2cnn(-c3ccccc3)c21 = 5.52 to 6.00
20) C=C(C(=O)NCc1cccc([C@@H]2c3cnn(-c4ccccc4)c3N(CC)C(=O)[C@H]2NC(=O)c2csc(C)n2)c1)C(C)N(C)C1COC1 (stereo partly drawn) = ≥ 6.70
21) C=C(CN1CCN(C2COC2)CC1)C(=O)N[C@H](C)c1cccc([C@@H]2c3cnn(-c4ccccc4)c3N(CC)C(=O)[C@H]2NC(=O)c2nccc(C(F)(F)F)n2)c1 (mixture of isomers) = 5.52 to 6.00
